measurement.target: Insulin
Sequence (P01308 25-54, chain 1 of 2): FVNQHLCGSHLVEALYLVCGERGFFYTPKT
Sequence (P01308 90-110, chain 2 of 2): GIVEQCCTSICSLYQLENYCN
run.description: polyreactivity ELISA on insulin coat, 100 nM
Measured Insulin polyreactivity score accompanies every entry in the list below.
Lab note: write the figure by itself, no unit.

Check out these entries, answers already filled in.
- binder: "MIAB157 (antibody, V domains shown) VH: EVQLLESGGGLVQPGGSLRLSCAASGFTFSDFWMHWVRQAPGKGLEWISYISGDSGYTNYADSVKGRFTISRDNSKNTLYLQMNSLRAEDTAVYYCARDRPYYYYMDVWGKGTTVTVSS VL: DIQMTQSPSSLSASVGDRVTITCRASQSISSYLAWYQQKPGKAPKLLIYAASSLQSGVPSRFSGSGSGTDFTLTISSLQPEDFATYYCQQYKSYPVTFGQGTKVEIK"
  meas.value: 3.99
- binder: "MIAB172 (antibody, V domains shown) VH: EVQLLESGGGLVQPGGSLRLSCAASGFTFSDFWMHWVRQAPGKGLEWISYISGDSGYTNYADSVKGRFTISRDNSKNTLYLQMNSLRAEDTAVYYCARDRPTYYYMDVWGKGTTVTVSS VL: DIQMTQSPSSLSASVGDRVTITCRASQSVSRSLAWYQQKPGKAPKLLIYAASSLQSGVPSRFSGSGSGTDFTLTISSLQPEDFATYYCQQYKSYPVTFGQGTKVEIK"
  meas.value: 3.79

Reported Insulin polyreactivity score for MIAB128 (antibody, V domains shown) VH: EVQLLESGGGLVQPGGSLRLSCAASGFTFSDFWMHWVRQAPGKGLEWISYISGDSGYTNYADSVKGRFTISRDNSKNTLYLQMNSLRAEDTAVYYCARDRPNYYYMDVWGKGTTVTVSS VL: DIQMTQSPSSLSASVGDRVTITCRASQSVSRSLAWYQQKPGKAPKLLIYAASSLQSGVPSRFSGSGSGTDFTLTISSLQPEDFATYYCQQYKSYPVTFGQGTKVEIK was 2.62
